- System: S. aureus MW2
- assay.protocol: Minimal inhibitory concentration, S. aureus MW2
- Assay type: cell-based
- stated.conditions: Staphylococcus aureus, MRSA, 16 h, 16 hour minimal inhibitory concentration at 37° C.; read-out: MIC (μM) S. aureus MW2 (MRSA)
Can you tell me MIC for the items I'm about to list?
Please state the figure in µM; there is no need to write the unit.

The reported value for CO[C@@H]1[C@@H](OC(N)=O)[C@@H](O)[C@H](Oc2ccc3c(O)c(NC(=O)c4cccc(Oc5ccc(Cl)cc5)n4)c(=O)oc3c2C)OC1(C)C [Compound 238] in terms of MIC is 10

The reported value for CO[C@@H]1[C@@H](OC(N)=O)[C@@H](O)[C@H](Oc2ccc3c(O)c(NC(=O)c4ccc(I)c(-c5ccccc5)c4)c(=O)oc3c2C)OC1(C)C [Compound 227] in terms of MIC is 4

###

Can you tell me MIC for the items I'm about to list?
- System: E. coli MC4100
- assay.protocol: Minimal inhibitory concentration, E. coli MC4100
- Type: cell-based
- stated.conditions: 16 hour minimal inhibitory concentration at 37° C.; read-out: MIC (μM) E. coli MC4100 ara+

The reported value for CO[C@@H]1[C@@H](OC(N)=O)[C@@H](O)[C@H](Oc2ccc3c(O)c(NC(=O)c4cc(O)c(O)c(-c5ccc(F)cc5)c4)c(=O)oc3c2C)OC1(C)C in terms of MIC is 38 µM

The reported value for CO[C@@H]1[C@@H](OC(N)=O)[C@@H](O)[C@H](Oc2ccc3c(O)c(NC(=O)c4ccc5ccn(C)c5c4)c(=O)oc3c2C)OC1(C)C.Cl in terms of MIC is >200 µM

The reported value for CO[C@@H]1[C@@H](OC(N)=O)[C@@H](O)[C@H](Oc2ccc3c(O)c(NC(=O)c4cccc(-c5ccccc5[N+](=O)[O-])c4)c(=O)oc3c2C)OC1(C)C in terms of MIC is >200 µM

###

- Tested on: WT E. coli
- assay.protocol: Minimal inhibitory concentration in wild-type E. coli
- Format: cell-based, Escherichia coli
- stated.conditions: wild-type E. coli, 37° C., 16 hours; read-out: MIC (μM) in WT E. coli
measurement.name: MIC (µM)
Please state the figure in µM; there is no need to write the unit.

The reported value for CO[C@@H]1[C@@H](OC(N)=O)[C@@H](O)[C@H](Oc2ccc3c(O)c(NC(=O)c4cccc(-c5ccccc5N)c4)c(=O)oc3c2C)OC1(C)C in terms of MIC is 59

The reported value for CO[C@@H]1[C@@H](OC(N)=O)[C@@H](O)[C@H](Oc2ccc3c(O)c(NC(=O)c4cccc(-c5ccccc5)c4O)c(=O)oc3c2C)OC1(C)C in terms of MIC is 89

The reported value for CO[C@@H]1[C@@H](OC(N)=O)[C@@H](O)[C@H](Oc2ccc3c(O)c(NC(=O)c4cccc(Cc5ccccc5)c4)c(=O)oc3c2C)OC1(C)C in terms of MIC is 89

The reported value for CO[C@@H]1[C@@H](OC(N)=O)[C@@H](O)[C@H](Oc2ccc3c(O)c(NC(=O)c4cc(-c5ccccc5)ccc4N)c(=O)oc3c2C)OC1(C)C in terms of MIC is 59

The reported value for CO[C@@H]1[C@@H](OC(N)=O)[C@@H](O)[C@H](Oc2ccc3c(O)c(NC(=O)c4cc(-c5ccccc5)ccc4O)c(=O)oc3c2C)OC1(C)C in terms of MIC is 18
